Reported z-score values are given for each entry in this list.
Assay: P. aeruginosa biofilm formation inhibitors, primary screen, strain PAO1, LB-PBS medium, absorbance 600 nm (AID 1176); further: test concentration not given here
Settings: P. aeruginosa PAO1 growth/biofilm, A600, 12 h; higher = more signal
Activity calls are given as the source filed them. How the calls were made is not given here.

CCOC(=O)C1=CC[C@@H](c2ccccc2)N(S(=O)(=O)c2ccc(C)cc2)[C@H]1C(=O)OCC; -0.0196 (inactive)
CC(C)C[C@@H]1NC(=O)[C@H]2C[C@@H](C(=O)NCCCCCCNC(=O)CS)[C@@H](c3cccc(OCCO)c3)N2C1=O; -0.145 (inactive)
COc1ccc(C#Cc2ccc3c(c2)[C@]2(C(=O)N3)[C@H](C(=O)NC[C@H](O)c3ccccc3)[C@H]3C(=O)O[C@H](c4ccccc4)[C@H](c4ccccc4)N3[C@@H]2c2ccc(OCCO)cc2)cc1; 2.55 (inactive)
CC(=CC1CCCCC1)[C@@H](NC(=O)c1ccc(C(F)(F)F)cc1)c1ccc(-c2ccccc2)cc1; 1.31 (inactive)
Cc1ccc(S[C@]2(C(=O)NCc3ccccc3)CC(=O)N(Cc3ccccc3)[C@@H]2c2ccc(CO)cc2)cc1; 0.429 (inactive)
COc1ccc(NN2C(C(O)c3ccc(OC)c(OCc4ccccc4)c3)C=CC3C(=O)N(C4CCCCC4)C(=O)C32)cc1 (centres undefined); 0.946 (inactive)
COCCOC(=O)N1C(=O)[C@@]2(c3cc(C#CCNC(N)=O)ccc31)[C@H](c1ccc(O)cc1)N1[C@H](c3ccccc3)[C@H](c3ccccc3)OC(=O)[C@H]1[C@@H]2C(=O)Nc1nc2ccccc2s1; 3.22 (inactive)
COc1ccc([Si](C)(C)[C@@H]2[C@@H](CCn3cc([C@H](O)c4ccccc4)nn3)O[C@]3(C(=O)N(Cc4ccc(N5C(=O)c6cccc7cccc5c67)cc4)c4ccccc43)[C@H]2C)cc1; 0.65 (inactive)

For the compound O=C1C[C@]2(c3ccc([N+](=O)[O-])cc3)C(=O)N(CC(F)(F)F)c3cc(CO)ccc3[C@H]2N1CC12CC3CC(CC(C3)C1)C2 , what z-score is on record?
0.503 (inactive)

Also, [N-]=[N+]=NCc1ccccc1C[C@]1(C(=O)NCCN2CCOCC2)N=C(c2ccc(OCCCO)cc2)O[C@H]1c1ccccc1N=[N+]=[N-] please.
1.57 (inactive)

* * *

Experiment: modulators of S6 phosphorylation in cells, primary screen, cell-based, A549, cytoblot, luminescence, serum-stimulated (AID 1158);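 further: serum-stimulated A549 lung adenocarcinoma cells; signal is phosphorylated S6 detected by cytoblot immunostaining with HRP secondary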
Conditions: A549 phospho-S6 cytoblot, 5 h, higher = more signal
Where z-score equals or exceeds 0.05, the correct label is criterion met; where it does not, the label is criterion not met.

These solved cases illustrate the format of a correct answer.
CO[C@H]1O[C@H](CO)[C@@H](OC(=O)Nc2ccc3c(c2)OCO3)[C@H](OC(=O)Nc2ccccc2)[C@H]1OC(=O)Nc1ccccc1; criterion met
CO[C@H]1O[C@H](CO)[C@@H](OC(=O)Nc2ccc(Oc3ccccc3)cc2)[C@H](OC(=O)Nc2ccccc2)[C@H]1OC(=O)Nc1ccccc1; criterion met
CC(=O)C1=CCC(c2ccccc2)N(S(=O)(=O)c2ccc(C)cc2)C1 (stereo unspecified); criterion not met
CCC[C@@H]1C=C(C(=O)O)[C@H](c2ccc(C)cc2)N1S(=O)(=O)c1ccc(C)cc1; criterion not met
CCCCCN1CC=CC23O[C@@H]4/C=C\CCCOC(=O)C4[C@H]2C(=O)N(CCCCCCO)[C@@H]3C1=O (stereo partly specified); criterion met
O=C1C2C=CC(C(O)c3ccc(B(O)O)cc3)N(Nc3ccccc3)C2C(=O)N1c1ccccc1 (stereo unspecified); criterion met

Tell me whether z-score is at least 0.05 here: CCCCCCc1nc(CCCc2cc3c(c(CCCCCC)n2)[Si](C(C)C)(C(C)C)OC3)cc2c1[Si](C(C)C)(C(C)C)OC2
criterion met

Also, Cc1ccc(S[C@]2(C(=O)NCC(C)C)CC(=O)N(Cc3ccccc3)[C@@H]2c2ccc(CO)cc2I)cc1 please.
criterion not met

Also, C=C(CCCC)/C(=C/C[C@H](OC(C)=O)c1ccc(CO)o1)c1cnc2ccccc2c1 please.
criterion met

Also, CCOC(=O)C[C@H]1[C@H](OC(=O)c2ccccc2-c2ccccc2)[C@@H](NC(=O)c2ccc3ccccc3c2)c2cc(OCCCO)ccc2N1C(=O)c1ccc2ccccc2n1 please.
criterion not met

Also, COc1ccc(C(=O)Nc2cccc(CN3C(=O)[C@@]4(O[C@@H](CCn5cc(CCO)nn5)[C@H]([Si](C)(C)c5ccc(OC)cc5)[C@H]4C)c4ccccc43)c2)cc1 please.
criterion not met

Also, COC(=O)c1ccc(C(O)C2C=CC3C(=O)N(C)C(=O)C3N2NC(=O)OC(C)(C)C)o1 (stereo unspecified) please.
criterion not met

Also, C=CC(COC(C)=O)NS(=O)(=O)c1ccc(Br)cc1 (stereo unspecified) please.
criterion met

Also, CCOC(=O)C1=C[C@@H](CC)N(S(=O)(=O)c2ccc(C)cc2)[C@H]1c1ccccc1 please.
criterion not met

Also, CN1C=C(C(=O)OCCS(C)(=O)=O)C(C(=O)OCCS(C)(=O)=O)=CC(CCCO)=CC1C1CC1 (stereo unspecified) please.
criterion met

Also, COc1ccc([Si](C)(C)[C@@H]2[C@@H](CCn3cc([C@H](O)c4ccccc4)nn3)O[C@]3(C(=O)N(Cc4cccc(N5CCOC5=O)c4)c4ccccc43)[C@H]2C)cc1 please.
criterion met

Also, Cc1ccccc1C(O)C1C=CC2C(=O)N(C)C(=O)C2N1N1CCCCC1 (stereo unspecified) please.
criterion not met

Also, CCCNC(=O)[C@@]1(c2ccc([N+](=O)[O-])cc2)CC(=O)N(CC23CC4CC(CC(C4)C2)C3)[C@@H]1c1ccc(CO)cc1 please.
criterion not met

Also, CCOC(=O)C1=CCC(C(C)(C)C)N(S(=O)(=O)c2ccc(C)cc2)C1 (stereo unspecified) please.
criterion not met

Also, COC(=O)[C@@]1(Cc2ccc(OC)cc2)[C@H]2c3cc(C(=O)N4CCCC4)n(Cc4ccccn4)c3C[C@H]2CN1C(=O)c1ccccc1 please.
criterion not met

Also, CCOC(=O)C1=CC[C@@H](c2ccccc2)N(S(=O)(=O)c2ccc(C)cc2)[C@H]1C(=O)OCC please.
criterion not met

Also, COCCOC(=O)N1C(=O)[C@@]2(c3cc(C#CC4(O)CCCCCC4)ccc31)[C@H](C(=O)N1CCCCCCC1)[C@H]1C(=O)O[C@H](c3ccccc3)[C@H](c3ccccc3)N1[C@@H]2c1ccccc1OCCO please.
criterion met

Also, Cc1ccc([C@H]2C(C(=O)O)=C[C@@H](C)N2S(=O)(=O)c2ccc(C)cc2)cc1 please.
criterion not met

Also, CCCC[C@@H]1C[C@H]1[C@@H](NC(=O)c1ccc(-c2ccccc2)cc1)c1ccc(-c2ccccc2)cc1 please.
criterion not met

Also, O=C/C=C/c1ccc(Cl)cc1 please.
criterion met

Also, Cc1c(NC(=O)CC#N)c(=O)n(-c2ccccc2)n1C please.
criterion met

Also, C=C(CCCC)C(=O)CC[C@H](OC(=O)c1cccnc1)c1cccc(OCCO)c1 please.
criterion met

Also, COCCOC(=O)N1C(=O)[C@@]2(c3cc(C#CCCO)ccc31)[C@H](C(=O)NC[C@H](O)c1ccccc1)[C@H]1C(=O)O[C@H](c3ccccc3)[C@H](c3ccccc3)N1[C@@H]2c1ccc(O)cc1 please.
criterion met

Also, CCOC(=O)[C@H]1C[C@H]2O[C@@]23C[C@H]1C(=O)N1CCCC1[C@@H]3O[Si](C)(C)C(C)(C)C (stereo partly specified) please.
criterion not met

Also, NCCCCCCNC(=O)[C@H]1C[C@H]2C(=O)NCC(=O)N2[C@H]1c1cccc(OCCO)c1 please.
criterion met

Reference for the values: PubChem BioAssay
